method notes: Cmax in Sprague-Dawley rat at 5 mg/kg, po administered as single dose measured upto 24 hrs by LC-MS/MS analysis
Type: ADME, organism-based
Set-up: dose 5 mg/kg, route oral
reported conditions: in vivo
measured attribute: Cmax (ng/mL)
Report as a plain number; the unit ng/mL is understood.

Item CCO/N=C/c1ccc(OCCC(C)CCN2CCN(c3ccnc(N)c3)C2=O)cc1 (stereo unspecified) has what recorded Cmax? 81.8

====

method notes: in vivo
reported conditions: Sprague-Dawley, rat, ip, 5 mg/kg
Description: Cmax in Sprague-Dawley rat at 5 mg/kg, ip administered as single dose measured upto 24 hrs by LC-MS/MS analysis
measured attribute: Cmax at 24 h (ng/mL)
// units = ng/mL; emit number, no label

Could you tell me which Cmax at 24 h is on file for CCO/N=C/c1ccc(OCCC(C)CCN2CCN(c3ccnc(N)c3)C2=O)cc1 (stereo unspecified) ? 149

====

method notes: Cmax in Sprague-Dawley rat at 1 mg/kg, iv administered as single dose measured upto 24 hrs by LC-MS/MS analysis
Type: ADME, organism-based
Parameters: dose 1 mg/kg, route intravenous
reported conditions: in vivo
measured attribute: Cmax (ng/mL)
Answer format: numeric, ng/mL implied, no suffix.

Recorded Cmax of CCO/N=C/c1ccc(OCCC(C)CCN2CCN(c3ccnc(N)c3)C2=O)cc1 (stereo unspecified) , please. 23.3

====

method notes: AUC (0 to t) in Sprague-Dawley rat at 1 mg/kg, iv administered as single dose measured upto 24 hrs by LC-MS/MS analysis
Assay type: ADME, organism-based
reported conditions: in vivo
measured attribute: AUCt (ng·h/mL)
The reply should contain only the number, in ng·h/mL.

State the recorded AUCt for this entry: CCO/N=C/c1ccc(OCCC(C)CCN2CCN(c3ccnc(N)c3)C2=O)cc1 (stereo unspecified) 60.8

====

method notes: Oral bioavailability in Sprague-Dawley rat at 5 mg/kg administered as single dose measured upto 24 hrs by LC-MS/MS analysis
Type: ADME, organism-based
reported conditions: in vivo
measured attribute: bioavailability (%)
Expressed in %, but write only the number.

For CCO/N=C/c1ccc(OCCC(C)CCN2CCN(c3ccnc(N)c3)C2=O)cc1 (stereo unspecified) , what is its reported bioavailability? 73.3

====

method notes: Apparent half-life of the terminal disposition phase in Sprague-Dawley rat at 5 mg/kg, po administered as single dose measured upto 24 hrs by LC-MS/MS analysis
Type: ADME, organism-based
reported conditions: in vivo, read-out: t1/2 lambda z (converted)
measured attribute: half-life
Write the numeric value and follow it with the unit.

Could you tell me which half-life is on file for CCO/N=C/c1ccc(OCCC(C)CCN2CCN(c3ccnc(N)c3)C2=O)cc1 (stereo unspecified) ? 2.99 h

====

method notes: Acute toxicity in juvenile zebrafish assessed as fatality rate at 20 uM after 24 hrs
reported conditions: in vivo
measured attribute: mortality at 24 h, 20 µM
Give your result as the value with the unit written after it.

Consider the following illustrative entries.
| molecule | mortality at 24 h, 20 µM |
| --- | --- |
| CC(CCOc1ccc(-c2noc(C(C)(C)C)n2)cc1)CCN1CCN(c2ccnc(N)c2)C1=O (centres undefined) | 0% |
| CCc1nc(-c2ccc(OCCC(C)CCN3CCN(c4ccnc(N)c4)C3=O)cc2)no1 (centres undefined) | 40% |
| Cc1nc(-c2ccc(OCCC(C)CCN3CCN(c4ccnc(N)c4)C3=O)cc2)no1 (centres undefined) | 0% |

Reported mortality at 24 h, 20 µM, molecule CC(CCOc1ccc(-c2noc(C(F)(F)F)n2)cc1)CCN1CCN(c2ccnc(N)c2)C1=O (centres undefined) : ____ 0%

Could you share which mortality at 24 h, 20 µM value was measured for CCO/N=C/c1ccc(OCCC(C)CCN2CCN(c3ccccc3)C2=O)cc1 (centres undefined) ? 100%

# lookup: mortality at 24 h, 20 µM of CCO/N=C/c1ccc(OCCC(C)CCN2CCN(c3ccnc(OC)c3)C2=O)cc1 (centres undefined) 100%

Requested read-out: mortality at 24 h, 20 µM. Entry: CCCc1nc(-c2ccc(OCCC(C)CCN3CCN(c4ccnc(N)c4)C3=O)cc2)no1 (centres undefined) 40%

Can you look up the measured mortality at 24 h, 20 µM of CCO/N=C/c1ccc(OCCCCCN2CCN(c3ccnc(N)c3)C2=O)cc1 for me? 20%

Return reported mortality at 24 h, 20 µM; argument: CCO/N=C/c1ccc(OCCC(C)CCN2CCN(c3ccnc(N)c3)C2=O)cc1 (centres undefined) 100%
